Ref: patent EP2662361A1

Assay: physchem
Format: physicochemical
Settings: reversed-phase c18 hplc, pH 2.7
Reported chromatographic logP is given for each of the following compounds.
Just the number, please, no unit attached.

Below, 3 compounds whose answers are already recorded.
The reported chromatographic logP of the compound Cn1cc(C(=O)Nc2cccc3c2CC(O)C3)c(C(F)F)n1 (stereo not drawn) was 1.42

The reported chromatographic logP of the compound CC(C)OC1Cc2cccc(NC(=O)c3cn(C)nc3C(F)F)c2C1 (stereo not drawn) was 2.71

The reported chromatographic logP of the compound CC(C)CC1Cc2cccc(NC(=O)c3cn(C)nc3C(F)F)c2C1 (stereo not drawn) was 4.14

Continuing:
The reported chromatographic logP of the compound CC1Cc2c(NC(=O)c3cn(C)nc3C(F)F)cccc2C1(C)C (stereo not drawn) was 3.55

The reported chromatographic logP of the compound CC1c2cccc(NC(=O)c3cn(C)nc3C(F)F)c2CC1(C)C (stereo not drawn) was 3.53

The reported chromatographic logP of the compound CC(C)C1Cc2cccc(NC(=O)c3cn(C)nc3C(F)F)c2C1 (stereo not drawn) was 3.77
